Entry source: paper PMC4336329

# Target Under Test: human ether-à-go-go-related gene (hERG) potassium channel (human);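 further: peak tail current of the secondary pulse compared with the same well before compound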
# Measurement Description: primary screen, population patch clamp on CHO cells stably expressing hERG; higher = less effect of the substance
Among all 310,000 compounds or so, about 14,000 (4.5%) showed an effect of 50% or more. Effects have a minus sign here. The sample holds strong results, similar compounds and a random draw of the others, so the mix is not that of the screen.
Metric: hERG current change (%, negative = inhibition) at 10uM (%)
Answer in %, number only, no unit symbol.

Form: Entry = Cc1cccc(N2CCN(C(=O)c3ccc(-n4cncn4)c([N+](=O)[O-])c3)CC2)c1C | System = human ether-à-go-go-related gene (hERG) potassium channel (human) | hERG current change (%, negative = inhibition) at 10uM = ____ -58.9

Form: Entry = CCCCn1c(SCc2ncc(-c3ccccc3)o2)nc2cc(S(N)(=O)=O)ccc21 | System = human ether-à-go-go-related gene (hERG) potassium channel (human) | hERG current change (%, negative = inhibition) at 10uM = ____ -50.5

Form: Entry = O=C(O)c1ccc(-n2cncn2)c([N+](=O)[O-])c1 | System = human ether-à-go-go-related gene (hERG) potassium channel (human) | hERG current change (%, negative = inhibition) at 10uM = ____ 11.6

Form: Entry = CCCCn1c(SCc2nc3ccccc3s2)nc2cc(S(N)(=O)=O)ccc21 | System = human ether-à-go-go-related gene (hERG) potassium channel (human) | hERG current change (%, negative = inhibition) at 10uM = ____ -37.5

Form: Entry = O=C(c1ccc(-n2cncn2)c([N+](=O)[O-])c1)N1CCN(c2cccc(Cl)c2)CC1 | System = human ether-à-go-go-related gene (hERG) potassium channel (human) | hERG current change (%, negative = inhibition) at 10uM = ____ -68.5

Form: Entry = O=C(NNC(=O)c1ccc(-n2cncn2)c([N+](=O)[O-])c1)c1cccc(Cl)c1 | System = human ether-à-go-go-related gene (hERG) potassium channel (human) | hERG current change (%, negative = inhibition) at 10uM = ____ -26.3

Form: Entry = O=C(Nc1cccc(Cl)c1)c1ccc(-n2cncn2)c([N+](=O)[O-])c1 | System = human ether-à-go-go-related gene (hERG) potassium channel (human) | hERG current change (%, negative = inhibition) at 10uM = ____ -35

Form: Entry = CCCCn1c(SCC(=O)N2CCC(C(=O)OCC)CC2)nc2cc(S(N)(=O)=O)ccc21 | System = human ether-à-go-go-related gene (hERG) potassium channel (human) | hERG current change (%, negative = inhibition) at 10uM = ____ -70.7

Form: Entry = CCCCn1c(SCc2c(C)noc2C)nc2cc(S(N)(=O)=O)ccc21 | System = human ether-à-go-go-related gene (hERG) potassium channel (human) | hERG current change (%, negative = inhibition) at 10uM = ____ -43.1

* * *

# Target Under Test: human ether-à-go-go-related gene (hERG) potassium channel (human, UniProt Q12809);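 further: peak tail current of the secondary pulse compared with the same well before compound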
# Sequence (Q12809 whole entry, looked up): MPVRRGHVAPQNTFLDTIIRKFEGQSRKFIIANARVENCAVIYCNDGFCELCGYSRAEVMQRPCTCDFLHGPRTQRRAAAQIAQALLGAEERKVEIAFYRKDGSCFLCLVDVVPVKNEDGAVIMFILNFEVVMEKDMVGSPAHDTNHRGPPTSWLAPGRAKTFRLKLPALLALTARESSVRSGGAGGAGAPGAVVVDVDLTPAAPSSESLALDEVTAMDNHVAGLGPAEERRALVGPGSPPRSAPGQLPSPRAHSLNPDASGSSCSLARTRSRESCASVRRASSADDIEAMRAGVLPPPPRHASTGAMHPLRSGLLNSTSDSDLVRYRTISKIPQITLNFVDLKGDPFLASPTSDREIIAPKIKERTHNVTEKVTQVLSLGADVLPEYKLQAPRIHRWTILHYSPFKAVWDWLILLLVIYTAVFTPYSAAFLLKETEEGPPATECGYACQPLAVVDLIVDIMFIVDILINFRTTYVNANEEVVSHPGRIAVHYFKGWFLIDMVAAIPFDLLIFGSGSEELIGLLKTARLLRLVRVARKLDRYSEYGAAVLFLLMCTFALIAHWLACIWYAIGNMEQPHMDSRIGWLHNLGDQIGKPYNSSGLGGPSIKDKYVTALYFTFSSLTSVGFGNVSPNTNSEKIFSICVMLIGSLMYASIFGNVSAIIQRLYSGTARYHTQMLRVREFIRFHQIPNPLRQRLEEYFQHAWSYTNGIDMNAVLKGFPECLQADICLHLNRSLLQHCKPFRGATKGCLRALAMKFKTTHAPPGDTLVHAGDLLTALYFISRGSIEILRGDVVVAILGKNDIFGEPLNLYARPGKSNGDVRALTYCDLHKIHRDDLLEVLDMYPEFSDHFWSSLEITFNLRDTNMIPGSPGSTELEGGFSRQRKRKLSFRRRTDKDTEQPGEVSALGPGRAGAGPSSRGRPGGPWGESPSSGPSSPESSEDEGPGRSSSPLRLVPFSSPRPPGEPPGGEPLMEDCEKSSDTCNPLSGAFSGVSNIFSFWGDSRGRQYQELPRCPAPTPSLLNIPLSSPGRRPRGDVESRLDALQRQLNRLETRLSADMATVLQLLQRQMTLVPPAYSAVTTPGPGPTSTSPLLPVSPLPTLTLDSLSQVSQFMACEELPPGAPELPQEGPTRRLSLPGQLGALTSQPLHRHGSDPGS
# Measurement Description: primary screen, population patch clamp on CHO cells stably expressing hERG; higher = less effect of the substance
Out of some 310,000 compounds screened, about 14,000 (4.5%) showed an effect of 50% or more. Effects have a minus sign here. The full list was thinned out, with strong results kept by preference.
Answer each item with its documented hERG current change (%, negative = inhibition) at 10uM.
Remember to quote the unit after the number.

Given the entry CCC(OCC(O)CN1CCN(CCN2C(=O)c3cccc4cccc(c34)C2=O)CC1)c1ccccc1.Cl (stereo not drawn) , report its measured hERG current change (%, negative = inhibition) at 10uM. -58.4%

Given the entry COc1ccccc1NC(=O)Nc1ccccc1C#N , report its measured hERG current change (%, negative = inhibition) at 10uM. 15.6%

Given the entry CCN(CC(=O)Nc1ccccc1C(=O)Nc1ccccc1)Cc1nc2ccccc2c(=O)[nH]1 , report its measured hERG current change (%, negative = inhibition) at 10uM. -75.6%

Given the entry CCCOc1ccc(C(=O)NNC(=S)NC(=O)c2cccs2)cc1 , report its measured hERG current change (%, negative = inhibition) at 10uM. 16.7%

Given the entry O=C1CCc2cc(S(=O)(=O)N3CCC(C(=O)NCc4ccccn4)CC3)ccc2N1 , report its measured hERG current change (%, negative = inhibition) at 10uM. 16.9%

Given the entry CCOC(=O)C1=C(CS(=O)(=O)c2ccccc2)NC(=O)NC1c1ccccc1OCC (stereo not drawn) , report its measured hERG current change (%, negative = inhibition) at 10uM. -4.89%

Given the entry Cc1cc(-c2nn(-c3ccccc3F)cc2CN2CCCC(CO)C2)c(C)s1 (stereo not drawn) , report its measured hERG current change (%, negative = inhibition) at 10uM. -7.33%

Given the entry Cc1nn(C)c(C)c1CNC(=O)Nc1cccc(Cl)c1 , report its measured hERG current change (%, negative = inhibition) at 10uM. 6.93%

Given the entry COc1cc(S(=O)(=O)N2CCN(C(=O)c3ccco3)CC2)c(OC)cc1C , report its measured hERG current change (%, negative = inhibition) at 10uM. 6.03%

Given the entry CC(C)(C)C(=O)N1CCN(CCN2C(=O)c3cccc4cccc(c34)C2=O)CC1 , report its measured hERG current change (%, negative = inhibition) at 10uM. 3.09%

Given the entry COc1ccc(/C=C/C(=O)Nc2ccc(C)cc2)cc1S(=O)(=O)N1CCOCC1 , report its measured hERG current change (%, negative = inhibition) at 10uM. -32.6%

Given the entry CN1C=CC2=C(C#N)C(N)C(C#N)(C#N)[C@H](c3ccccc3)[C@H]2C1 (stereo partly drawn) , report its measured hERG current change (%, negative = inhibition) at 10uM. -4.67%

Given the entry Cc1ccc(OP(=O)(O)Oc2ccc(C)cc2)cc1 , report its measured hERG current change (%, negative = inhibition) at 10uM. 2.09%

Given the entry COc1ccc(-c2nn(-c3ccccc3C)cc2CNCc2cccnc2)cc1F , report its measured hERG current change (%, negative = inhibition) at 10uM. -38.3%

Given the entry Cc1ccc(NC(=O)CSC(N)=O)cc1Cl , report its measured hERG current change (%, negative = inhibition) at 10uM. 7.5%

Given the entry Cc1ccc2oc(C(=O)N3CCN(Cc4nccn4C)CC3)c(C)c2c1 , report its measured hERG current change (%, negative = inhibition) at 10uM. -41.3%

Given the entry Cc1cc(-c2nn(-c3ccccc3F)cc2CN2CCC(O)CC2)c(C)s1 , report its measured hERG current change (%, negative = inhibition) at 10uM. -28.9%

Given the entry CS(=O)(=O)N1CCN(CCN2C(=O)c3cccc4cccc(c34)C2=O)CC1 , report its measured hERG current change (%, negative = inhibition) at 10uM. 7.17%

Given the entry CCOCCCN1C(=O)C(=O)N(CC(=O)N2c3ccccc3NC(=O)CC2C)C1=O (stereo not drawn) , report its measured hERG current change (%, negative = inhibition) at 10uM. 17.2%

Given the entry Cc1nn(Cc2cccc(C(=O)Nc3ccn(Cc4ccccc4F)n3)c2)c(C)c1[N+](=O)[O-] , report its measured hERG current change (%, negative = inhibition) at 10uM. 6.24%

Given the entry Cc1cc(-c2nn(-c3ccccc3F)cc2CN(C)CC(O)CO)c(C)s1 (stereo not drawn) , report its measured hERG current change (%, negative = inhibition) at 10uM. -22.3%

Given the entry CC(=O)c1ccc(OCC(O)CN2CCN(CCN3C(=O)c4cccc5cccc(c45)C3=O)CC2)cc1.Cl (stereo not drawn) , report its measured hERG current change (%, negative = inhibition) at 10uM. -34.1%

Given the entry COc1ccc(C)cc1S(=O)(=O)N1CCN(C/C=C/c2ccccc2)CC1 , report its measured hERG current change (%, negative = inhibition) at 10uM. -23.8%

Given the entry CC1CCN(C(=O)Cn2c(=O)n(Cc3ccc4c(c3)OCO4)c(=O)c3ccccc32)CC1 , report its measured hERG current change (%, negative = inhibition) at 10uM. -18.5%

Given the entry Cc1cc(-c2nn(-c3ccccc3F)cc2CN2CCCC(O)C2)c(C)s1 (stereo not drawn) , report its measured hERG current change (%, negative = inhibition) at 10uM. -9.16%

Given the entry Cc1ccc2oc(C(=O)N3CCN(CCO)CC3)c(C)c2c1 , report its measured hERG current change (%, negative = inhibition) at 10uM. 13.7%

Given the entry CCN(CC(=O)Nc1ccccc1-c1ccccc1)Cc1nc2ccccc2c(=O)[nH]1 , report its measured hERG current change (%, negative = inhibition) at 10uM. -23.4%

Given the entry O=C(CCN1C(=O)COc2ccccc21)NCc1cccnc1 , report its measured hERG current change (%, negative = inhibition) at 10uM. 6.28%

Given the entry COc1ccc(/C=C/C(=O)Nc2ccccc2)cc1S(=O)(=O)N1CCOCC1 , report its measured hERG current change (%, negative = inhibition) at 10uM. -52.2%

Given the entry COc1ccccc1-c1cc(-c2ccc(O)cc2)nc(N)c1C#N , report its measured hERG current change (%, negative = inhibition) at 10uM. 13.9%

Given the entry COc1ccc(/C=C/C(=O)Nc2ccc(NC(C)=O)cc2)cc1S(=O)(=O)N1CCOCC1 , report its measured hERG current change (%, negative = inhibition) at 10uM. 1.65%

Given the entry COc1ccc(NC(C)=O)cc1S(=O)(=O)N1CCN(Cc2cccs2)CC1 , report its measured hERG current change (%, negative = inhibition) at 10uM. -3.53%

Given the entry Cc1c(Cl)cccc1NC(=O)CN1CCC(C(O)(c2ccccc2)c2ccccc2)CC1 , report its measured hERG current change (%, negative = inhibition) at 10uM. -12.3%

Given the entry COc1ccc(S(=O)(=O)N2CCN(C/C=C/c3ccccc3)CC2)cc1NC(C)=O , report its measured hERG current change (%, negative = inhibition) at 10uM. -77.9%

Given the entry CN1CCCN(C(=O)COc2cccc(C(F)(F)F)c2)CC1 , report its measured hERG current change (%, negative = inhibition) at 10uM. -0.603%

Given the entry O=C(NCCC1=CCCCC1)C1CCCN(S(=O)(=O)c2ccccc2)C1 (stereo not drawn) , report its measured hERG current change (%, negative = inhibition) at 10uM. 6.97%

Given the entry CCNC(=S)N1CCN(CCN2C(=O)c3cccc4cccc(c34)C2=O)CC1 , report its measured hERG current change (%, negative = inhibition) at 10uM. 0.247%

Given the entry COc1ccc(S(=O)(=O)N2CCN(C/C=C/c3ccccc3)CC2)cc1F , report its measured hERG current change (%, negative = inhibition) at 10uM. -30.1%

Given the entry COc1ccc(/C(O)=C2/C(=O)C(=O)N(CCCC(=O)O)C2c2ccc(OC)cc2)cc1 (stereo not drawn) , report its measured hERG current change (%, negative = inhibition) at 10uM. 11.7%
